Molecular target: UniProtKB P23743
Sequence (P23743 other isoform, or with tags, fused parts or gaps): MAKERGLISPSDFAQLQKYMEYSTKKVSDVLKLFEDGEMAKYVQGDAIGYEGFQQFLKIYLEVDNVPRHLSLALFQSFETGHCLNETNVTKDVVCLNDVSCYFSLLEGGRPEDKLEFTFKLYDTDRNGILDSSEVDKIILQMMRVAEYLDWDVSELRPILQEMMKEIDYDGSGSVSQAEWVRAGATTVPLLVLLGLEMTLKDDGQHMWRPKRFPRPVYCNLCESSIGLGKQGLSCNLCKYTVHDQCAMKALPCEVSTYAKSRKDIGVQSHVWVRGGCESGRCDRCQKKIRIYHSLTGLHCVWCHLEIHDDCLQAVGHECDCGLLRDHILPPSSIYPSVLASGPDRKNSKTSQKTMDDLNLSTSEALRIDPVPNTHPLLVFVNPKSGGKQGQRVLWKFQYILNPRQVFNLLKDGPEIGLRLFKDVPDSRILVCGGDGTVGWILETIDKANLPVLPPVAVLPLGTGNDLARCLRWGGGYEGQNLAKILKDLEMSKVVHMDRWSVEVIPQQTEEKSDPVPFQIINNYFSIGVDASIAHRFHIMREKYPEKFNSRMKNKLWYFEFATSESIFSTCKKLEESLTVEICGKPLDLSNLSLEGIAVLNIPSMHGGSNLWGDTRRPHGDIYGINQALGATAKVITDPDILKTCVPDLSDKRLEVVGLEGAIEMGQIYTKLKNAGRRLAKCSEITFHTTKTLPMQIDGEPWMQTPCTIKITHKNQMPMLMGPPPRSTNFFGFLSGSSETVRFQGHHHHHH
Assay: biochemical
Conditions: detergent/lipid micelle substrate; read-out: DGKα IC50
pIC50: −log10 of the molar value.
Binning rule for recorded pIC50: class 0 (below 5), class 1 (5 to below 6), class 2 (6 or more)

Query :: Band for `C#CCn1c(=O)c(C#N)c(N2CCN(Cc3ccc(F)cc3OC)CC2)c2nc(Br)ccc21` ?
Result :: class 1

Query :: Band for `Cn1c(=O)c(C#N)c(N2CCN(Cc3cccc4cn[nH]c34)CC2)c2nc(Cl)ccc21` ?
Result :: class 1

Query :: Band for COCCn1c(=O)c(C#N)c(N2CCN(C(c3ccc(F)cc3)c3ccccc3O)CC2)c2nc(Br)ccc21 (stereo not shown) ?
Result :: class 0

Query :: Band for COc1cc(F)ccc1C(c1ccc(F)cc1)N1CCN(c2c([N+](=O)[O-])c(=O)n(C)c3ccc(Br)nc23)CC1 (single isomer, unassigned) [Example 57] ?
Result :: class 1

Query :: Band for `COCCn1c(=O)c([N+](=O)[O-])c(N2CCN(C(c3ccc(F)cc3)c3ccc(F)cc3)CC2)c2nc(C#N)ccc21` ?
Result :: class 0

Query :: Band for COCCn1c(=O)c([N+](=O)[O-])c(N2CCN(C(c3ccc(F)cc3)c3ccccc3O)CC2)c2nc(C#N)ccc21 (stereo not shown) ?
Result :: class 0

Query :: Band for `Cn1c(=O)c(C#N)c(N2CCN(Cc3cccc4cn[nH]c34)CC2)c2nc(Br)ccc21` ?
Result :: class 1

Query :: Band for `Cn1c(=O)c(C#N)c(N2CCN(Cc3ccc(Cl)c(F)c3)CC2)c2nc(Cl)ccc21` ?
Result :: class 1

Query :: Band for COCCn1c(=O)c([N+](=O)[O-])c(N2CCN(C3CCc4ccc(OC)cc43)CC2)c2nc(C#N)ccc21 (stereo not shown) ?
Result :: class 0

Query :: Band for `Cn1c(=O)c(C#N)c(N2CCN(Cc3cccc(F)c3O)CC2)c2nc(Br)ccc21` ?
Result :: class 2

Query :: Band for `Cn1c(=O)c(C#N)c(N2CCN(Cc3cccc4nc[nH]c34)CC2)c2nc(Br)ccc21` ?
Result :: class 0

Query :: Band for COc1cc(F)ccc1C(c1ccc(F)cc1)N1CCN(c2c([N+](=O)[O-])c(=O)n(C)c3ccc(C#N)nc23)CC1 (single isomer, unassigned) [Example 125] ?
Result :: class 1

Query :: Band for `Cn1c(=O)c(C#N)c(N2CCN(Cc3cccc4nc[nH]c34)CC2)c2nc(Cl)ccc21` ?
Result :: class 0

Query :: Band for `Cn1c(=O)c(C#N)c(N2CCN(Cc3ccc(F)cc3O)CC2)c2nc(Br)ccc21` ?
Result :: class 2

Query :: Band for Cn1c(=O)c([N+](=O)[O-])c(N2CCN(C(c3ccc(F)cc3)c3cccc(F)c3O)CC2)c2nc(Br)ccc21 (single isomer, unassigned) [Example 75] ?
Result :: class 1

Query :: Band for `Cn1c(=O)c(C#N)c(N2CCN(Cc3c(O)cccc3Cl)CC2)c2nc(Cl)ccc21` ?
Result :: class 2

Query :: Band for COCCn1c(=O)c(C#N)c(N2CCN(C(c3ccc(F)cc3)c3ccc(F)cc3OC)CC2)c2nc(Br)ccc21 (racemic) [Example 114] ?
Result :: class 0

Query :: Band for CC(c1ccc(F)cc1)N1CCN(c2c(C#N)c(=O)n(C)c3ccc(Br)nc23)CC1 (single isomer, unassigned) [Example 24] ?
Result :: class 2

Query :: Band for COc1cc(F)ccc1C(c1ccc(F)cc1)N1CCN(c2c([N+](=O)[O-])c(=O)n(C)c3ccc(C#N)nc23)CC1 (racemic) [Example 123] ?
Result :: class 1

Query :: Band for `Cn1c(=O)c(C#N)c(N2CCN(Cc3ccc(C(C)(C)C)cc3O)CC2)c2nc(Cl)ccc21` ?
Result :: class 2

Query :: Band for `Cn1c(=O)c(C#N)c(N2CCN(Cc3ccccc3Cl)CC2)c2nc(Br)ccc21` ?
Result :: class 1

Query :: Band for COc1ccccc1C(c1ccc(F)cc1)N1CCN(c2c(C#N)c(=O)n(CC3CC3)c3ccc(Br)nc23)CC1 (single isomer, unassigned) [Example 160] ?
Result :: class 0

The origin of these recorded values is patent US11866430B2.
